Where do these numbers come from? They come from patent US12071443B2.

Lab note: IC50 readings collected with PHD2 (Homo sapiens, UniProt Q9GZT9) for the following compounds.
Sequence (Q9GZT9 whole entry): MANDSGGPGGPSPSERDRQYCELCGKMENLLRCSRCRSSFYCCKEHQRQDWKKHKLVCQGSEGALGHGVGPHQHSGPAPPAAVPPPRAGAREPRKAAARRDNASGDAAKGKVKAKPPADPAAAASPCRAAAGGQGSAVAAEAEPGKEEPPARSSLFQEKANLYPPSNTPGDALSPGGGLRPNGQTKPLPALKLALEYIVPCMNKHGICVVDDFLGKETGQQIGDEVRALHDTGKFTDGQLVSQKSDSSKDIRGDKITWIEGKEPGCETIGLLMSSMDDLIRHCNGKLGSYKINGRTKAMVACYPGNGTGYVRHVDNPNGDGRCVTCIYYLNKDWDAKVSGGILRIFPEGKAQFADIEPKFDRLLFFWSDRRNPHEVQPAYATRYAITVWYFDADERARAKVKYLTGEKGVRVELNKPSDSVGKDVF

Observe how each entry below is paired with its result.
CC(C)OC(=O)N1CCN(c2ccc3c(O)c(C(=O)NCc4ccc(C#N)nc4)ncc3n2)CC1 [Example 138] : < 5 nM
CC(C)(C)OC(=O)NC1CN(c2ccc3c(O)c(C(=O)NCc4ccc(C#N)nc4)ncc3n2)C1 [Example 127] : < 5 nM
C[C@@H]1CN(C(=O)OC(C)(C)C)CCN1c1ccc2c(O)c(C(=O)NCc3ccc(C#N)nc3)ncc2n1 [Example 150] : < 5 nM
COC(=O)CC1CN(c2ccc3c(O)c(C(=O)NCc4ccc(C#N)nc4)ncc3n2)C1 [Example 152] : < 5 nM
CC(C)(C)OC(=O)N[C@@H]1CCN(c2ccc3c(O)c(C(=O)NCc4ccc(C#N)nc4)ncc3n2)C1 [Example 140] : 5 to 20 nM

Quick one: give me IC50 for each item below, same order please.
1. C[C@@H]1CN(c2ccc3c(O)c(C(=O)NCc4ccc(C#N)nc4)ncc3n2)CCN1C(=O)OC(C)(C)C [Example 149]
2. CC(C)(C)OC(=O)N[C@H]1CC(=O)N(c2ccc3c(O)c(C(=O)NCc4ccc(C#N)nc4)ncc3n2)C1 [Example 143]
3. CC(C)(C)OC(=O)N[C@H]1CCN(c2ccc3c(O)c(C(=O)NCc4ccc(C#N)nc4)ncc3n2)C1 [Example 125]
4. CC(C)(C)OC(=O)N1CCN(c2ccc3c(O)c(C(=O)NCc4cnc(C#N)nc4)ncc3n2)CC1 [Example 133]

< 5 nM
< 5 nM
< 5 nM
5 to 20 nM
